Kindly state TGI for each of the entries shown.
Tested on: 786-0 renal
Assay: NCI tumour cell line growth inhibition, 48 h

Name the recorded TGI of the molecule listed here: `COc1cccc(CCNC(=O)Cc2ccccc2CCO)c1` > 100 µM

Name the recorded TGI of the molecule listed here: `N#C[C@H](c1ccccn1)c1nc2ccccc2nc1Cl` > 100 µM

Name the recorded TGI of the molecule listed here: `COc1cccc(CC(C)=C(c2ccc(OCCN(C)C)cc2)c2ccc(OCCN(C)C)cc2)c1` 1.27 µM

---

Test system: HT29 colon
Test: NCI tumour cell line growth inhibition, 48 h; in the data active = GI50 below about 0.43 µM; inactive = the rest
Choose the fitting class; nothing outside active, inactive is accepted.

Recorded test call requested for `CN1CCN(C2CCN(C(=O)Nc3cc(Oc4ccc(NC(=O)C5(C(=O)Nc6ccc(F)cc6)CC5)c(F)c4)ccn3)CC2)CC1` inactive

Recorded test call requested for `N#Cc1c(NC(=O)NCc2ccccc2)sc2c1CCCCC2` active

Recorded test call requested for `COc1cc(C(=O)N2CCN(C=O)C2=S)cc(OC)c1OC` inactive

Recorded test call requested for `O=C(Nc1ccc(Nc2ccncc2)cc1)c1ccc([N+](=O)[O-])cc1` inactive

Recorded test call requested for `COC(=O)C[C@](O)(CCCC(C)(C)O)C(=O)O[C@@H]1C(OC)=C[C@]23CCCN2CCc2cc4c(cc2[C@H]13)OCO4` active

Recorded test call requested for `O=C(Nc1ccc(Br)cc1F)c1cc(F)ccc1O` inactive

Recorded test call requested for `COc1cc(-c2oc(=O)ccc2C#Cc2ccccn2)cc(OC)c1OC` inactive

Recorded test call requested for CCN1CCN(C(=O)[C@@]2(C)CC[C@]3(C)CC[C@]4(C)C(=CC(=O)[C@@H]5[C@@]6(C)CC[C@H](OC7C[C@@H](O)[C@@H](O)C(C)O7)C(C)(C)[C@@H]6CC[C@]54C)[C@@H]3C2)CC1 (stereo partly drawn) inactive
